assay: in vivo
measurement_context: wt (wild type), mouse, po
quantity_kind: MTD at 1 week

GET /value?item= CCOP(=O)(OCC)OCC(CNC(=O)C(C)c1ccc(CC(C)C)cc1)OP(=O)(OCC)OCC (stereo not shown) [Compound 4, Phospho-Ibuprofen Gylcerol Amide] &field=MTD at 1 week returns > 600 mg/kg/day

---

Test system: U87 glioblastoma cell line
assay: 24-hour growth inhibition of glioblastoma cells
Format: cell-based
measurement_context: U87, 24-hour growth inhibition; read-out: 24-h 1c50
pIC50: −log10 of the molar value.
quantity_kind: pIC50

- molecule: "CC(C)Cc1ccc(C(C)C(=O)O)cc1 (centres unmarked) [ibuprofen, reference compound]"
  target: "U87 glioblastoma cell line"
  pIC50: "≤ 3.00"

Entry CC1=C(CC(=O)O)c2cc(F)ccc2/C1=C\c1ccc([S+](C)[O-])cc1 (centres unmarked) [Sulindac, sulindac, reference compound] , tested on U87 glioblastoma cell line, has a reported pIC50 of ≤ 3.00
